B1: CPEB3 Ribozyme (parent)
chain: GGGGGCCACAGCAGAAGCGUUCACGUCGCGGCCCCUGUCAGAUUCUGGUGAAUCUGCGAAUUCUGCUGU

Variants of: B1
Experiment: self-cleavage, relative activity (ratio to wild type); higher = more cleavage; co-transcriptional
Entry flag: met if self-cleavage reaches 0.8; not met if it does not.

Record "G1A" ; criterion: self-cleavage no lower than 0.8. Met? not met

Record U38A U61G ; criterion: self-cleavage no lower than 0.8. Met? not met

Record G2U G50C ; criterion: self-cleavage no lower than 0.8. Met? not met

Record A40U C54U ; criterion: self-cleavage no lower than 0.8. Met? not met

Record C57U A60C ; criterion: self-cleavage no lower than 0.8. Met? not met

Record U62G U69G ; criterion: self-cleavage no lower than 0.8. Met? met

Record C24A C66G ; criterion: self-cleavage no lower than 0.8. Met? not met

Record A10U U44G ; criterion: self-cleavage no lower than 0.8. Met? met

Record G30A C45U ; criterion: self-cleavage no lower than 0.8. Met? met

Record C39U A52G ; criterion: self-cleavage no lower than 0.8. Met? met

Record U61C C63A ; criterion: self-cleavage no lower than 0.8. Met? not met

Record A42C C45U ; criterion: self-cleavage no lower than 0.8. Met? met

The origin of these recorded values is the RNAGym collection of RNA variant scans (doi:10.7554/elife.80360).
